Exercise: for every item that follows, state its recorded Net mg NO3N.
# Tested on: nitrification of ammonium nitrogen in soil
# assayOverview: Soil nitrification inhibition test (Mountainview silt loam, banded)
# settings: 4 weeks, 25° C; 410 mg urea + 41 mg inhibitor
Answers are plain numbers, in mg/container.

INSERT INTO measurements (compound, recordedendpoint, unitinfo, assayresult) VALUES
  ('CC1(C)N(Br)C(=O)N(Br)C1(C)C', 'Net mg NO3N', 'mg/container', 0.0),
  ('CC1(C)COC(=O)N1Br', 'Net mg NO3N', 'mg/container', 0.0),
  ('N#CN=C(N)N [Dicyandiamide, dicyandiamide, reference compound]', 'Net mg NO3N', 'mg/container', 22.7),
  ('CC1(C)COC(=O)N1Cl', 'Net mg NO3N', 'mg/container', 185.5);

# input compound: CC1(C)N(Cl)C(=O)N(Br)C1(C)C ; wanted: its Net mg NO3N 0.0

====

# Tested on: nitrification of ammonium nitrogen in soil
# assayOverview: Soil nitrification inhibition test (Mountainview silt loam, banded)
# settings: 2 weeks, 25° C; 410 mg urea + 41 mg inhibitor
recordedEndpoint: % inhibition (nitrification)
Value and unit, in that order.

INSERT INTO measurements (compound, assayresult) VALUES
  ('CC1(C)COC(=O)N1Br', '100.0%'),
  ('CC1(C)COC(=O)N1Cl', '68.9%'),
  ('CC1(C)N(Br)C(=O)N(Br)C1(C)C', '100.0%'),
  ('N#CN=C(N)N [Dicyandiamide, dicyandiamide, reference compound]', '88.6%');

# next compound below
Consider the compound shown here: CC1(C)N(Cl)C(=O)N(Br)C1(C)C What is its recorded % inhibition (nitrification)? 100.0%

====

# Tested on: nitrification of ammonium nitrogen in soil
# assayOverview: Soil nitrification inhibition test (Mountainview silt loam, banded)
# settings: 4 weeks, 25° C; 410 mg urea + 41 mg inhibitor
Exercise: state measured % inhibition (nitrification) for each of the compounds provided.
Numbers only, in %.

// known answers, use as guide
INSERT INTO measurements (compound, unitinfo, assayresult) VALUES
  ('CC1(C)COC(=O)N1Cl', '%', -2.8),
  ('CC1(C)N(Cl)C(=O)N(Br)C1(C)C', '%', 100.0),
  ('N#CN=C(N)N [Dicyandiamide, dicyandiamide, reference compound]', '%', 87.4);

I would be grateful if you could provide % inhibition (nitrification) for each of the following entries.
1. CC1(C)N(Br)C(=O)N(Br)C1(C)C
2. CC1(C)COC(=O)N1Br

1: 100.0; 2: 100.0

====

Kindly supply the reported Net mg NO3N values for the records listed here.
# Tested on: nitrification of ammonium nitrogen in soil
# assayOverview: Soil nitrification inhibition test (Mountainview silt loam, banded)
# settings: 3 weeks, 25° C; 410 mg urea + 41 mg inhibitor
One number for each entry, in mg/container.

INSERT INTO assay_data (compound, recordedendpoint, unitinfo, assayresult) VALUES
  ('CC1(C)COC(=O)N1Cl', 'Net mg NO3N', 'mg/container', 171.3),
  ('N#CN=C(N)N [Dicyandiamide, dicyandiamide, reference compound]', 'Net mg NO3N', 'mg/container', 22.7),
  ('CC1(C)COC(=O)N1Br', 'Net mg NO3N', 'mg/container', 0.0),
  ('CC1(C)N(Cl)C(=O)N(Br)C1(C)C', 'Net mg NO3N', 'mg/container', 0.0);

Kindly review the next compound as well.
Data request, read-out Net mg NO3N, for CC1(C)N(Br)C(=O)N(Br)C1(C)C 0.0

====

# System: nitrification of ammonium nitrogen in soil
# assayOverview: Soil nitrification inhibition test (Mountainview silt loam, banded)
# settings: 4 weeks, 25° C; 410 mg urea + 41 mg inhibitor
# if value of Net mg NO2N reaches 0.5 mg/container, tag T; if it stays below, tag F

INSERT INTO results (compound, categorylabel) VALUES
  ('CC1(C)N(Cl)C(=O)N(Br)C1(C)C', 'T'),
  ('CC1(C)COC(=O)N1Br', 'T'),
  ('CC1(C)N(Br)C(=O)N(Br)C1(C)C', 'T');

I'd appreciate it if you could say whether N#CN=C(N)N [Dicyandiamide, dicyandiamide, reference compound] has Net mg NO2N at least equal to 0.5 mg/container. F

Next: CC1(C)COC(=O)N1Cl F

====

# Tested on: nitrification of ammonium nitrogen in soil
# assayOverview: Soil nitrification inhibition test (Mountainview silt loam, banded)
# settings: 3 weeks, 25° C; 410 mg urea + 41 mg inhibitor
Exercise: state measured Net mg NO2N for each of the compounds provided.
Numbers only, in mg/container.

INSERT INTO results (compound, unitinfo, assayresult) VALUES
  ('CC1(C)N(Br)C(=O)N(Br)C1(C)C', 'mg/container', 0.03),
  ('CC1(C)COC(=O)N1Cl', 'mg/container', 0.07),
  ('CC1(C)N(Cl)C(=O)N(Br)C1(C)C', 'mg/container', 0.08);

For the 2 compounds below, give their Net mg NO2N values.
1. N#CN=C(N)N [Dicyandiamide, dicyandiamide, reference compound]
2. CC1(C)COC(=O)N1Br

[0.01, 0.12]

====

# Test system: nitrification of ammonium nitrogen in soil
# assayOverview: Soil nitrification inhibition test (Mountainview silt loam, banded)
# settings: 5 weeks, 25° C; 410 mg urea + 41 mg inhibitor
recordedEndpoint: Net mg NO3N (mg/container)
Answers are plain numbers, in mg/container.

Some molecules with recorded Net mg NO3N:
INSERT INTO results (molecule, assayresult) VALUES
  ('CC1(C)COC(=O)N1Br [IB, 3-bromo-4,4-dimethyl-2-oxazolidinone]', 0.8),
  ('CC1(C)N(Br)C(=O)N(Br)C1(C)C [AB]', 3.1),
  ('N#CN=C(N)N [Dicyandiamide, dicyandiamide, reference compound]', 18.4);

Please go through the list and note Net mg NO3N for each molecule.
1. CC1(C)COC(=O)N1Cl [I, 3-chloro-4,4-dimethyl-2-oxazolidinone]
2. CC1(C)N(Cl)C(=O)N(Br)C1(C)C [ABC]

187.4
0.8

====

# Test system: soil urease (urease-active Hastings silt loam soil)
# assayOverview: Banded soil system urease inhibition test (Hastings silt loam)
# settings: 3 days incubation at 25° C; 410 mg urea + 41 mg inhibitor
recordedEndpoint: PPM urea-N
State the value with its unit after it.

Examples with answers:
INSERT INTO assay_data (compound, assayresult) VALUES
  ('CC1(C)COC(=O)N1Cl [I, 3-chloro-4,4-dimethyl-2-oxazolidinone]', '73.0 PPM'),
  ('CC1(C)COC(=O)N1Br [IB, 3-bromo-4,4-dimethyl-2-oxazolidinone]', '58.0 PPM'),
  ('CC1(C)N(Cl)C(=O)N(Br)C1(C)C [ABC]', '75.0 PPM'),
  ('CC1(C)N(Br)C(=O)N(Br)C1(C)C [AB]', '62.5 PPM');

So what does the record say about PPM urea-N for NP(N)(=O)Oc1ccccc1 [PPDA, Phenyl phosphorodiamidate, reference compound] ? 83.5 PPM
